systemTested: Epidermal growth factor receptor (Homo sapiens)
method: Inhibition of wild type EGFR (unknown origin) using Tyr 4 peptide as substrate after 1.5 hrs by FRET-based Z'-LYTE assay
statedConditions: read-out: IC50
readoutType: IC50 (nM)

* C=CC(=O)Nc1ccc(-n2c(=O)cnc3cnc(Nc4ccc(N5CCOCC5)cc4)nc32)cc1 | 5590
* COc1ccc(Nc2ncc3ncc(=O)n(-c4cccc(NC(=O)/C=C/CN(C)C)c4)c3n2)cc1 | 26300
* COc1ccc(Nc2ncc3ncc(=O)n(-c4ccc(NC(=O)/C=C/CN(C)C)cc4)c3n2)cc1 | 59.1

a: C=CC(=O)Nc1ccc(Nc2ncc3ncc(=O)n(-c4ccc(OC)cc4)c3n2)cc1
b: C=CC(=O)Nc1ccc(-n2c(=O)c(C)nc3cnc(Nc4ccc(OC)cc4)nc32)cc1
c: C=CC(=O)Nc1cccc(-n2c(=O)cnc3cnc(Nc4ccc(N5CCCC5)cc4)nc32)c1
d: C=CC(=O)Nc1ccc(-n2c(=O)cnc3cnc(Nc4ccc(N5CCN(C)CC5)cc4)nc32)cc1
*Q* Order by IC50, ascending. Return the labels ranked in the requested order, please.
*A* c, d, b, a

a: C=CC(=O)Nc1cccc(-n2c(=O)cnc3cnc(Nc4ccc(N5CCCCC5)cc4)nc32)c1
b: C=CC(=O)Oc1ccc(-n2c(=O)cnc3cnc(Nc4ccc(OC)cc4)nc32)cc1
*Q* Returns: the label, a or b , whose recorded IC50 is the lower number. Your answer should be the label of the entry you select.
*A* a
(a: 15.7 nM, b: 60.4 nM)

---

systemTested: Epidermal growth factor receptor (Homo sapiens, UniProt P00533, L858R)
Sequence (P00533 25-1210 L858R limits assumed): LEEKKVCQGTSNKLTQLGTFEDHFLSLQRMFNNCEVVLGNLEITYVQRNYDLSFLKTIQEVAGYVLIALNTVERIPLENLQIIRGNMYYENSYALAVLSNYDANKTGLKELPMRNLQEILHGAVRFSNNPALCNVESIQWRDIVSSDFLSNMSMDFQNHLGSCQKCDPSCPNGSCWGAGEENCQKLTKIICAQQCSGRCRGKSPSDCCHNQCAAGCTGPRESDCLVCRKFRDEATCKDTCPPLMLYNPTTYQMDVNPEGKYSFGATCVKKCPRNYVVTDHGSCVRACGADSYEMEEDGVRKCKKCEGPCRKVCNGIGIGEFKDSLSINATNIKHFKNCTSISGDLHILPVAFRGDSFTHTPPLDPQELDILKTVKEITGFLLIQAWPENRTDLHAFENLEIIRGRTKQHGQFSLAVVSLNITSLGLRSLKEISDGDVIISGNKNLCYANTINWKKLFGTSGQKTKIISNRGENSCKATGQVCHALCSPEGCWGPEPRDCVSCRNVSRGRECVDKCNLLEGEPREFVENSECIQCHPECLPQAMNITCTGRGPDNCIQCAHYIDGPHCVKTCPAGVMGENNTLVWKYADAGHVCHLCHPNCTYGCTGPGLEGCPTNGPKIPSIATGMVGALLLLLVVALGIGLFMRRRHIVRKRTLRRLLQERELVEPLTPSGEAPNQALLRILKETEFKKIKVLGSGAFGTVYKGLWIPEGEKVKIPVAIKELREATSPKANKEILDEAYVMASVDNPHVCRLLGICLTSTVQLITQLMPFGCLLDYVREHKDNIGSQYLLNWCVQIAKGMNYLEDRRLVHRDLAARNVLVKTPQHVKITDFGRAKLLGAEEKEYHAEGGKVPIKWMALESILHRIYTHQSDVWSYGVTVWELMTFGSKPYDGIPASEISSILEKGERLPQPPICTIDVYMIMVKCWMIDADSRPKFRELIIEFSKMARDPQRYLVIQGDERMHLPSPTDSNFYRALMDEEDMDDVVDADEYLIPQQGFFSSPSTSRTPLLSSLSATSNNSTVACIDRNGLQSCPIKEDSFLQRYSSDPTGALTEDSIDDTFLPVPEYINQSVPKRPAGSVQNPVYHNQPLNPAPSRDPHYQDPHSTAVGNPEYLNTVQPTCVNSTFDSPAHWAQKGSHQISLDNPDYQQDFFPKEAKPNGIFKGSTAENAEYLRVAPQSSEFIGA
method: Inhibition of EGFR L858R mutant (unknown origin) using Tyr 4 peptide as substrate after 1.5 hrs by FRET-based Z'-LYTE assay
Type: protein assay
statedConditions: read-out: IC50
readoutType: IC50 (µM)

P: C=CC(=O)Nc1cccc(-n2c(=O)cnc3cnc(Nc4ccc(Cl)cc4)nc32)c1
Q: COc1ccc(Nc2ncc3ncc(=O)n(-c4cccc(NC(=O)/C=C/CN(C)C)c4)c3n2)cc1
R: C=CC(=O)Oc1ccc(-n2c(=O)cnc3cnc(Nc4ccc(OC)cc4)nc32)cc1
S: COc1ccc(-n2c(=O)cnc3cnc(Nc4cccc(N)c4)nc32)cc1
*Q* Give the descending IC50 ranking for the 4 compounds listed above. Returns: the labels listed in the requested order.
*A* Q, S, R, P
(Q: 32.8 µM, S: 8.04 µM, R: 0.123 µM, P: 0.0491 µM)

---

systemTested: Epidermal growth factor receptor (Homo sapiens)
method: Inhibition of wild type EGFR (unknown origin) using Tyr 4 peptide as substrate after 1.5 hrs by FRET-based Z'-LYTE assay
readoutType: IC50

Use these answered entries as a reference point.
• CCC(=O)Nc1cccc(-n2c(=O)cnc3cnc(Nc4ccc(OC)cc4)nc32)c1 = Not Active
• C=CC(=O)Nc1ccc(-n2c(=O)cnc3cnc(Nc4ccccc4)nc32)cc1 = Not Active
• CCC(=O)Nc1ccc(-n2c(=O)cnc3cnc(Nc4ccc(OC)cc4)nc32)cc1 = Not Active
• COc1ccc(Nc2ncc3ncc(=O)n(-c4ccc(N)cc4)c3n2)cc1 = Not Active
• C=CC(=O)Nc1cccc(Nc2ncc3ncc(=O)n(-c4ccc(OC)cc4)c3n2)c1 = Not Active

The molecule listed as `CN(C)C/C=C/C(=O)Nc1ccc(-n2c(=O)cnc3cnc(Nc4ccccc4)nc32)cc1` has a reported IC50 of Not Active

// IC50 lookup, molecule = `COc1ccc(Nc2ncc3ncc(=O)n(-c4cccc(N)c4)c3n2)cc1` , result: Not Active
